Please respond with reported Ratio IC50 for every item in the list.
- System: K562
- assayText: Resistance index, ratio IC50 for human K562 cells to IC50 for P-gp positive human K562 cells
- Assay type: functional
A bare number is all that is needed in reply.

In: Fetch value of Ratio IC50 on K562 for COc1cccc2c1C(=O)c1c(O)c3c(c(O)c1C2=O)C[C@@](O)(C(=O)CO)C[C@@H]3O[C@H]1C[C@H](N)[C@H](O)[C@H](C)O1 .
Out: 51

In: Fetch value of Ratio IC50 on K562 for CNCCNc1c2c(c(NCCNC)c3sccc13)C(=O)c1ccccc1C2=O .
Out: 1.4

In: Fetch value of Ratio IC50 on K562 for Cc1csc2c(NCCN(C)C)c3c(c(NCCN(C)C)c12)C(=O)c1ccccc1C3=O .
Out: 1.8

In: Fetch value of Ratio IC50 on K562 for CNCCNc1c2c(c(NCCNC)c3c(C)csc13)C(=O)c1ccccc1C2=O .
Out: 2

---

- System: K562
- assayText: Resistance index, ratio IC50 for human K562 cells to IC50 for P-gp positive human K562 cells
- Assay type: functional
Response field label: string, one of Yes (Ratio IC50 strictly below 3) or No.

In: State whether 3 exceeds Ratio IC50 recorded for CNC(=O)c1cc2c(NCCN(C)C)c3c(c(NCCN(C)C)c2s1)C(=O)c1ccccc1C3=O .
Out: Yes

In: State whether 3 exceeds Ratio IC50 recorded for O=C1c2ccccc2C(=O)c2c1c(NCCNCCO)c1ccsc1c2NCCNCCO .
Out: No

In: State whether 3 exceeds Ratio IC50 recorded for CNCCNc1c2c(c(NCCNC)c3[nH]ccc13)C(=O)c1ccccc1C2=O .
Out: No

In: State whether 3 exceeds Ratio IC50 recorded for CNCCNc1c2c(c(NCCNC)c3sc(C(=O)NC)cc13)C(=O)c1ccccc1C2=O .
Out: No

In: State whether 3 exceeds Ratio IC50 recorded for CN(C)CCNc1c2c(c(NCCN(C)C)c3sccc13)C(=O)c1ccccc1C2=O .
Out: Yes

In: State whether 3 exceeds Ratio IC50 recorded for CN(C)CCNc1c2c(c(NCCN(C)C)c3sc(C(=O)NCCO)cc13)C(=O)c1ccccc1C2=O .
Out: No

In: State whether 3 exceeds Ratio IC50 recorded for N=C(N)NCCNc1c2c(c(NCCNC(=N)N)c3sccc13)C(=O)c1ccccc1C2=O .
Out: No

In: State whether 3 exceeds Ratio IC50 recorded for CC(=O)OCCNCCNc1c2c(c(NCCNCCOC(C)=O)c3sccc13)C(=O)c1ccccc1C2=O .
Out: No

In: State whether 3 exceeds Ratio IC50 recorded for Cc1csc2c(NCCN)c3c(c(NCCN)c12)C(=O)c1ccccc1C3=O .
Out: No

---

- System: HCT-116
- assayText: Resistance index, ratio IC50 for HCT116 cells to IC50 for p53 deleted human HCT116 cells
- Format: functional
observedProperty: Ratio IC50

In: Give a short answer stating reported Ratio IC50 for Cc1csc2c(NCCN)c3c(c(NCCN)c12)C(=O)c1ccccc1C3=O .
Out: >83

In: Give a short answer stating reported Ratio IC50 for CN(CCNc1c2c(c(NCCN(C)C(=N)N)c3sccc13)C(=O)c1ccccc1C2=O)C(=N)N .
Out: >24

In: Give a short answer stating reported Ratio IC50 for N=C(N)NCCNc1c2c(c(NCCNC(=N)N)c3sccc13)C(=O)c1ccccc1C2=O .
Out: >25

In: Give a short answer stating reported Ratio IC50 for CN(C)CCNc1c2c(c(NCCN(C)C)c3sc(C(=O)NN)cc13)C(=O)c1ccccc1C2=O .
Out: >25
